Assay: melting temperature; fluorescence melt of hairpins on a sequencing array, two-state fit, raised by 9.35 °C to match UV melts
Conditions: sodium 0.088 M
# Tm values compiled below

| sequence.entry | Tm / °C |
| --- | --- |
| GCAATCGAAAGATGATGC ((((((....)))..))) | 32.5 |
| GCTTAGCGAAAGCCGAGC (((..((....))..))) | 42 |
| GGATGAGGAAACCCATCC (((((.(....).))))) | 44.6 |
| GATTCCGAAAGGATGATC ((((((....)))..))) | 31.8 |
| GTGCCCGAAAGGGACAC ((((((....))).))) | 58.7 |
| GTCCAGGGAAACCCGGAC ((((.((....)).)))) | 51 |
| GATCATTGTATGATC ((((((...)))))) | 49.5 |
| GAGTCGGAAACGACTC ((((((....)))))) | 65.9 |
| CGTATGAAAATACG (((((....))))) | 47.4 |
| GATCCCGGAAACGGGGTC ((.((((....)))).)) | 57.6 |
| GCTATGCGAAAGCAACGC ((..(((....)))..)) | 39.1 |
| GATCTACTCATAGATC ((((((....)))))) | 41.7 |

###

Tm for assorted sequences
Experiment: melting temperature; fluorescence melt of hairpins on a sequencing array, two-state fit, raised by 9.35 °C to match UV melts
Conditions: sodium 0.088 M
reported.endpoint: Tm (°C)

| sequence.entry | recorded.measurement |
| --- | --- |
| GATGTACGAAAGTAATC (((.(((....)))))) | 35.8 |
| GTAGGCGAAAGCCAATAC ((((((....)))..))) | 33.6 |
| GATATGCGAAAGCACATC (((.(((....))).))) | 39.3 |
| CGTACGGAAACGTAACG ((((((....))).))) | 45.3 |
| GCTTGCGAAAGCAGTAGC ((((((....)))..))) | 45.7 |
| GATCGATTAGTCGATC ((((((....)))))) | 53.2 |

###

Assay: folding enthalpy; higher = less favourable; fluorescence melt of hairpins on a sequencing array, two-state fit
Settings: sodium 0.088 M

| sequence.entry | folding enthalpy (kcal/mol) |
| --- | --- |
| GGTCTCGGAAACAAGACC (((((.(....).))))) | -31.8 |
| CGGTCCGGAAACGGTCCG (((.(((....))).))) | -40.5 |
| GATCCTCCTTAGGATC ((((((....)))))) | -36.8 |
| GATCACCGGTGTGATC ((((((....)))))) | -38 |
| GCATCAGAAATGATGC ((((((....)))))) | -38.7 |
| GGTGCTCGAAAGAGTACC (((.(((....))).))) | -45.9 |

###

Assay: folding enthalpy; higher = less favourable; fluorescence melt of hairpins on a sequencing array, two-state fit
Conditions: sodium 0.088 M
Tag: T if measured folding enthalpy is not below -70 kJ/mol, F if it is.

| sequence.entry | group |
| --- | --- |
| GCGACAGCTCGC ((((....)))) | T |
| CGCGATCGGAAACGAGCG (((..(((....)))))) | F |
| GCCTCGGGAAACCGAAGC ((.((((....)))).)) | F |
| GCGGCCGAAAGGCCACGC ((((((....)))..))) | T |
| GCGAGGGGAAACCCCCGC (((.(((....))).))) | F |
| CGCGGATAACTCCGCG ((((((....)))))) | F |
| GTCTGGAAACAGAC (((((....))))) | F |
| GATCGCTACCGCGATC ((((((....)))))) | F |
| CGTAATCGGAAACGAACG (((..(((....)))))) | T |
| GCACGCCCGAAAGGGTGC (((..(((....)))))) | T |
| GATCCTACCAGGATC ((((((...)))))) | F |
| GCCCAGCGAAAGCTACGC ((..(((....)))..)) | T |
| GCACAGCGAAAGCTCGGC ((..(((....)))..)) | T |
| GCTGCCGAAAGGCAAAGC ((((((....)))..))) | T |
| GCACAGCGAAAGCGGCGC ((.(.((....)).).)) | F |
| GACTACGAAAGTACGGTC ((((((....)))..))) | F |
| CGTATGAAAATACG (((((....))))) | F |
| GGTTGGGGAAACCCGACC (((.(((....))).))) | F |
| GATCATCTCTATGATC ((((((....)))))) | F |
| GAAGACGGAAACATCTTC (((((.(....).))))) | F |
| GATGAGGGAAACCTCGTC ((.((((....)))).)) | F |
| ATGTAGAAATACAT (((((....))))) | T |
| GAAAGGACGAAAGTCTTC (((..(((....)))))) | T |

The reported numbers originate from the array DNA melting data of Ke et al. (doi:10.1101/2024.01.08.574731).
